Provenance of the data: ChEMBL document CHEMBL1201862

- System: SN12C
- PROTOCOL_SUMMARY: NCI tumour cell line growth inhibition, 48 h
Active and inactive are the calls of the source. Rule as the data show it: active = GI50 up to about 1.1 µM and inactive = higher.
Labels: True = active, False = inactive

{"columns": ["MOLECULE", "LABEL_VALUE"],
 "data": [
  ["Cc1c(C(=O)CC(=O)C(=O)Nc2ccc(Cl)cc2)[n+]([O-])c2ccccc2[n+]1[O-]", "False"],
  ["NC(=O)NCCSC1CCCCC1O (stereo not given)", "False"],
  ["CCOP(=O)(OCC)/C(C#N)=C/c1cccn1N(C)C", "False"],
  ["CCN(CC)c1ccc2c(c1)Nc1cc(=C(C#N)C#N)c3ccccc3c1=N2", "False"],
  ["C=CCONC(=O)c1ccc(Cl)cc1", "False"],
  ["C#CC1NC(=O)C1N(CC)CC (stereo not given)", "False"],
  ["COc1cc(/C=C2/SC(c3ccccc3)N(c3cccc([N+](=O)[O-])c3)C2=O)cc(OC)c1OC (stereo not given)", "False"],
  ["CCC1C(=O)OCc2c1cc1n(c2=O)Cc2ccccc2-1 (stereo not given)", "False"],
  ["CCOC(=O)C(C#N)(Cc1c[nH]c2ccccc12)NC(C)=O (stereo not given)", "False"],
  ["COc1cc(/C=C/C(=N\\NC(=S)NN)c2sc(NNC(C)=O)nc2C)ccc1O", "False"],
  ["CC(=O)OCC1OC(n2c(N)c(C#N)c(-c3ccc(C)cc3)c(C#N)c2=S)C(OC(C)=O)C(OC(C)=O)C1OC(C)=O (stereo not given)", "False"],
  ["CCCCC1Cc2cc(OC)ccc2-c2n1c1cc(OC)ccc1[n+]2C.CCCCC1Cc2cc(OC)ccc2-c2n1c1ccc(OC)cc1[n+]2C (stereo not given)", "True"],
  ["C=CCC1(C#N)C(=S)NC2=C(C(=O)CC(C)(C)C2)C1c1ccccc1 (stereo not given)", "False"],
  ["CS(=O)(=O)N(N(CCCl)S(=O)(=O)c1ccccc1)S(C)(=O)=O", "False"],
  ["COC(=O)/C=C(\\CC(=O)OC)n1nnnc1[C@@H]1C[C@H](COC(c2ccccc2)(c2ccccc2)c2ccccc2)[C@H]2OC(C)(C)O[C@H]21", "False"],
  ["C=C[C@]1(O[Si](C)(C)C)C[C@@]2(C(=O)OCC)C(O)C(=O)N3CCc4cc(OC)c(OC)cc4[C@]312 (stereo not given in full)", "False"],
  ["COC(=O)CN(CC1O[C@@H]2OC(C)(C)O[C@@H]2C1NC(C)=O)C(=O)OCc1ccccc1 (stereo not given in full)", "False"],
  ["CCc1nc(N)nc(N)c1-c1ccc(N2CCNCC2)c([N+](=O)[O-])c1", "False"],
  ["C[C@@H]1CC[C@@H]2[C@@H](C1)O[C@@H]([C@@H](C)OCc1ccccc1)SC2(C)C", "False"],
  ["CCC(C)C1NC(=O)CNC(=O)C2Cc3c([nH]c4cc(O)ccc34)[S+]([O-])CC(NC(=O)CNC1=O)C(=O)NC(CC(=O)O)C(=O)N1CC(O)CC1C(=O)NC(C(C)C(O)CO)C(=O)N2 (stereo not given)", "False"],
  ["O=c1ccn(C/C=C/c2ccccc2)c(=S)n1C/C=C/c1ccccc1", "False"],
  ["Cc1nc(N)nc(N)c1-c1ccc(Cl)c(Cl)c1 [METOPRINE]", "True"],
  ["CC[C@@]1(CCC(=O)NCCc2c[nH]c3ccccc23)CCC(=O)N2CCc3c([nH]c4ccccc34)[C@H]21", "False"],
  ["CN1CCN(C2=CC(=O)c3c(O)ccc(O)c3C2=O)CC1", "False"],
  ["CC(C)(C)OC(=O)N1CC(CCl)c2ccc(O)cc21 (stereo not given)", "False"]
]}
